- Test system: SNB-75 CNS
- ASSAY DETAILS: NCI tumour cell line growth inhibition, 48 h
Exercise: for every item that follows, state its recorded TGI.

stdin: Consider the compound OCc1ccc(N2CCCC2)cc1Cl and give its measured TGI.
stdout: > 100 µM

stdin: Consider the compound CC(=O)C12C[C@](C#N)(N3CCCCCC3)C1C=Cc1ccccc12 (some centres undefined) and give its measured TGI.
stdout: > 100 µM

stdin: Consider the compound NC(=O)C12CC3CC(CC(Br)(C3)C1)C2 and give its measured TGI.
stdout: > 100 µM

stdin: Consider the compound CC(=O)Nc1ccc(C(=O)N2N=C(C)/C(=C/c3cccc([N+](=O)[O-])c3)C2=O)cc1 and give its measured TGI.
stdout: > 100 µM

* * *

Exercise: for every item that follows, state its recorded TGI.
- System: MALME-3M melanoma
- ASSAY DETAILS: NCI tumour cell line growth inhibition, 48 h
Please state the figure in µM; there is no need to write the unit.

stdin: Form field: TGI recorded for S=C(N/N=C\c1ccccn1)N(Cc1ccccn1)Cc1ccccn1 with MALME-3M melanoma (enter value)
stdout: 16.9

stdin: Form field: TGI recorded for O=C1/C(=C/c2cccc(Br)c2)COc2ccc(O)c(O)c21 with MALME-3M melanoma (enter value)
stdout: 3.06

* * *

The next entries give measured GI50 for U251 CNS.

stdin: Consider the molecule CCOC1OC(=O)[C@H]2[C@@H]1[C@@H]1CC[C@H]2O1 (some centres undefined) and give its measured GI50.
stdout: > 100 µM

stdin: Consider the molecule C=CCCCOC1[C@H](OCc2ccccc2)C(OCc2ccccc2)C(OC)O[C@@H]1CNC(=O)c1cccc(I)c1 (some centres undefined) and give its measured GI50.
stdout: 4.66 µM

stdin: Consider the molecule COc1ccc2c(c1)C(=O)c1c-2c(N2CCNCC2)nc2ccccc12 and give its measured GI50.
stdout: 4.6 µM

stdin: Consider the molecule Oc1c(Cl)cc(Cl)c2cccnc12 and give its measured GI50.
stdout: 2.67 µM

* * *

Exercise: for every item that follows, state its recorded TGI.
- Tested on: SNB-19 CNS
- ASSAY DETAILS: NCI tumour cell line growth inhibition, 48 h
Where a SMILES comes first, the peptide text is derived from it. Bridges are numbered along the chain shown (N, C = ends). The star is where a group is joined. Cbz = O=C(OCc1ccccc1)*

stdin: Form field: TGI recorded for CN(c1ccc(C#N)c(Cl)c1)C1CCC(NC(=O)c2ccc(N3CCN(C4CN(c5ccc6c(c5)C(=O)N(C5CCC(=O)NC5=O)C6=O)C4)CC3)cc2)CC1 (stereo not given) with SNB-19 CNS (enter value)
stdout: > 100 µM

stdin: Form field: TGI recorded for Nc1ccc(C(=O)N/C(=C\c2cccc([N+](=O)[O-])c2)c2nc3ccc(Cl)cc3[nH]2)cc1 with SNB-19 CNS (enter value)
stdout: > 100 µM

stdin: Form field: TGI recorded for COC(=O)C1CCCCNC(=O)CCC(NC(=O)OCc2ccccc2)C(=O)N1 (stereo not drawn) (Cbz-Glu-Lys-OMe; lactam 1-2; configuration not given here) with SNB-19 CNS (enter value)
stdout: > 100 µM

stdin: Form field: TGI recorded for O=C1c2ccccc2C(=O)N1C1(C(=O)NC2(C(=O)O)CCCC2)CCCC1 with SNB-19 CNS (enter value)
stdout: > 100 µM

stdin: Form field: TGI recorded for C[C@@H]1CC[C@@H](C)[C@](C)(CCc2ccoc2)C/C=C\C=C/1C(=O)O with SNB-19 CNS (enter value)
stdout: > 50 µM

stdin: Form field: TGI recorded for CSc1nc(C#N)c(N)n1C with SNB-19 CNS (enter value)
stdout: > 100 µM

stdin: Form field: TGI recorded for CCN1CCCC(Nc2cc(C)nc(/N=C(/N)Nc3ccc(Cl)c(Cl)c3)n2)C1 (stereo not given) with SNB-19 CNS (enter value)
stdout: 5.59 µM

stdin: Form field: TGI recorded for COC1=CC(=O)c2c(O)c3c(c(O)c2C1=O)C[C@](C)(O)C[C@@H]3O with SNB-19 CNS (enter value)
stdout: 14.7 µM

stdin: Form field: TGI recorded for c1csc(-c2csc(-c3ccsc3)c2)c1 with SNB-19 CNS (enter value)
stdout: > 100 µM

stdin: Form field: TGI recorded for COc1cc(OC)cc(-n2c(N)c(-c3nc4ccccc4n3C)c3ccc([N+](=O)[O-])cc3c2=O)c1 with SNB-19 CNS (enter value)
stdout: > 100 µM

stdin: Form field: TGI recorded for O=C(N/C(=C\c1cc(Cl)ccc1Cl)c1nc2ccc(Cl)cc2[nH]1)c1ccccc1 with SNB-19 CNS (enter value)
stdout: 60.1 µM

stdin: Form field: TGI recorded for CC1(C)CC2=C(Sc3ccccc3N2)C(=O)C1C(=O)C(=O)Nc1cc(Cl)ccc1Cl (stereo not given) with SNB-19 CNS (enter value)
stdout: > 100 µM

stdin: Form field: TGI recorded for CCN1C(=O)N(CC)C2C1NN=c1s/c(=C\c3ccc[nH]3)c(=O)n12 (stereo not given) with SNB-19 CNS (enter value)
stdout: > 100 µM

stdin: Form field: TGI recorded for COc1ccc2c(c1)C(=O)c1c-2c(N2CCNCC2)nc2ccccc12 with SNB-19 CNS (enter value)
stdout: 20.7 µM

stdin: Form field: TGI recorded for O=S(=O)(NC1=NCCN1C(=S)SN1CCn2c1nsc2=S)c1cccc(OC(F)(F)F)c1 with SNB-19 CNS (enter value)
stdout: 45.4 µM

* * *

- Test system: RXF 393 renal
- ASSAY DETAILS: NCI tumour cell line growth inhibition, 48 h
QUANTITY NAME: TGI

stdin: Consider the compound Cc1ccc(N=C2SC(c3ccc(C)cc3)(c3ccc(C)cc3)c3ccccc32)cc1 and give its measured TGI.
stdout: > 100 µM

stdin: Consider the compound Cc1cc(S(=O)(=O)Nc2nc3ccccc3n2-c2ccccc2)c(S)cc1Cl and give its measured TGI.
stdout: > 100 µM

stdin: Consider the compound CC(C)=Nn1cnc(C(=N)C#N)c1N and give its measured TGI.
stdout: > 100 µM

stdin: Consider the compound NS(=O)(=O)c1cccc(-c2ccc3c(NC(=O)C4CC4)n[nH]c3c2)c1 and give its measured TGI.
stdout: > 25 µM

stdin: Consider the compound COc1cc(C(c2cccc3ccccc23)N2C(=O)CCC2C(=O)NCc2ccccc2)cc(OC)c1OC (stereo not given) and give its measured TGI.
stdout: > 100 µM

* * *

- Tested on: CCRF-CEM leukemia
- ASSAY DETAILS: NCI tumour cell line growth inhibition, 48 h; in the data active means GI50 below about 0.43 µM; inactive means the rest
Answer with one of the outcomes given here: t = active, f = inactive

stdin: State the result this test recorded for CCN(CC)C(=S)SSC(=S)N(CC)CC .
stdout: f

stdin: State the result this test recorded for Cc1ccc(Sc2oc(-c3ccc(C)cc3)nc2[P+](c2ccccc2)(c2ccccc2)c2ccccc2)cc1 .
stdout: t

stdin: State the result this test recorded for Nc1cc2cccc[n+]2c2cccc(Cl)c12 .
stdout: f

stdin: State the result this test recorded for C=CCCCOC1[C@H](OCc2ccccc2)C(OCc2ccccc2)C(OC)O[C@@H]1CNC(=O)c1cccc(I)c1 (some centres undefined) .
stdout: f

* * *

Exercise: for every item that follows, state its recorded TGI.
- System: MCF7 breast
- ASSAY DETAILS: NCI tumour cell line growth inhibition, 48 h

stdin: Consider the molecule Nc1n[nH]c2ccc([C@@H]3Nc4cc5[nH]ncc5cc4[C@H]4C5CCC(C5)[C@@H]34)cc12 (some centres not stated) and give its measured TGI.
stdout: > 80.8 µM

stdin: Consider the molecule CC(=O)c1ccc(N2CCN(C3=CC(=O)c4c(O)ccc(O)c4C3=O)CC2)cc1 and give its measured TGI.
stdout: > 100 µM

stdin: Consider the molecule CCCCCn1c(=O)c2c(=O)[nH][nH]c2c2ccccc21 and give its measured TGI.
stdout: > 100 µM

stdin: Consider the molecule Cc1c(C#N)c2nnn(-c3ccccc3)c(=O)n2c1-c1ccccc1 and give its measured TGI.
stdout: > 66.6 µM

stdin: Consider the molecule CC(NNC(=O)c1ccncc1)c1ccc(Cl)c(Cl)c1 (configuration not stated) and give its measured TGI.
stdout: > 100 µM

stdin: Consider the molecule N/C(=N\c1nc2ccccc2s1)NC(=NC1CCCCC1)NC1CCCCC1 and give its measured TGI.
stdout: 2.83 µM

stdin: Consider the molecule ONC1=Nc2ccccc2OCc2cc(Br)c(Br)cc2COc2ccccc2N=C1NO and give its measured TGI.
stdout: > 44.7 µM

stdin: Consider the molecule Cc1cc(NC(=O)c2cnc(N3CCN(CCOCCOCCOCCOCCC(=O)N[C@H](C(=O)N4C[C@H](O)C[C@H]4C(=O)N[C@@H](C)c4ccc(-c5scnc5C)cc4)C(C)(C)C)CC3)cn2)c2ncccc2c1 and give its measured TGI.
stdout: > 100 µM

stdin: Consider the molecule Nc1ncccc1-c1nc2ccc(-c3ccccc3)nc2n1-c1ccc(C2(N)CCC2)cc1 and give its measured TGI.
stdout: 1.68 µM

stdin: Consider the molecule N=C(N)SCCCN and give its measured TGI.
stdout: > 59.9 µM

stdin: Consider the molecule O=[N+]([O-])c1ccc2c(Nc3ccccc3-c3ccccc3Nc3c4ccccc4nc4cc([N+](=O)[O-])ccc34)c3ccccc3nc2c1 and give its measured TGI.
stdout: 39.3 µM

stdin: Consider the molecule Cc1ccnc(NC(=S)Nc2cccc(Cl)c2)c1 and give its measured TGI.
stdout: > 100 µM

stdin: Consider the molecule O=C1c2ccccc2-c2nc(-c3ccccc3)cc3c2c1nc1ccccc13 and give its measured TGI.
stdout: 21.9 µM

stdin: Consider the molecule NNc1c2ccccc2nc2ccccc12 and give its measured TGI.
stdout: 33.7 µM

stdin: Consider the molecule CC1=C(Cl)C[C@@H](/C(C)=C\Cl)O[C@@]1(O)C(Br)Br and give its measured TGI.
stdout: 49.3 µM

stdin: Consider the molecule CCN1CCCC(Nc2cc(C)nc(/N=C(/N)Nc3ccc(Cl)c(Cl)c3)n2)C1 (configuration not stated) and give its measured TGI.
stdout: 3.59 µM

stdin: Consider the molecule O=C1CCC2(O)C3Cc4ccc(Oc5nnnn5-c5ccccc5)c5c4C2(CCN3CC2CC2)C1O5 (configuration not stated) and give its measured TGI.
stdout: > 100 µM

stdin: Consider the molecule CCN(C(=O)CN1CCN(c2cc3c(cc2F)c(=O)c(C(=O)O)cn3CC)CC1)c1nc(-c2ccccc2)cs1 and give its measured TGI.
stdout: > 100 µM

stdin: Consider the molecule Nc1n[nH]c(N)c1N=Nc1ccc(O)cc1 and give its measured TGI.
stdout: 90.8 µM

stdin: Consider the molecule C=CCCCOC1[C@H](OCc2ccccc2)C(OCc2ccccc2)C(OC)O[C@@H]1CNC(=O)c1cccc(I)c1 (some centres not stated) and give its measured TGI.
stdout: > 100 µM

stdin: Consider the molecule [N-]=[N+]=NC[C@H]1OCO[C@H](CN=[N+]=[N-])[C@H]2OCCOCCOc3ccccc3OCCOCCO[C@@H]21 and give its measured TGI.
stdout: > 100 µM

stdin: Consider the molecule O=C1CSC(c2ccccc2O)N1c1nnc(Cn2ccnc2)o1 (configuration not stated) and give its measured TGI.
stdout: 23.5 µM

stdin: Consider the molecule Cc1cc(C)c2c(=N)c3ccccc3n(CCCCCCO)c2n1 and give its measured TGI.
stdout: 8.56 µM

stdin: Consider the molecule COc1cc(C2CC(=O)Nc3c2cc(Br)c2ccccc32)cc(Br)c1OC (configuration not stated) and give its measured TGI.
stdout: > 100 µM

stdin: Consider the molecule CCN(CC)C(=O)COc1cc2c(O)c3c(O)c(C)c4c(c13)C(=O)C(C)(OC=CC(OC)C(C)C(OC(C)=O)C(C)C(O)C(C)C(O)C(C)C=CC=C(C)C(=O)N2)O4 (configuration not stated) and give its measured TGI.
stdout: > 100 µM

stdin: Consider the molecule Cc1cccc2c(Nc3ccc(NS(C)(=O)=O)cc3)c3ccc([N+](=O)[O-])cc3nc12 and give its measured TGI.
stdout: 3.58 µM

stdin: Consider the molecule CCOC1OC(=O)[C@H]2[C@@H]1[C@@H]1CC[C@H]2O1 (some centres not stated) and give its measured TGI.
stdout: > 100 µM

stdin: Consider the molecule CN1CCN(c2cc3nc4ccccc4n(-c4ccc(Cl)cc4)c-3cc2=N)CC1 and give its measured TGI.
stdout: > 100 µM

stdin: Consider the molecule CC(=O)OC(C)C(OC(C)=O)C(OC(C)=O)C(/C=C/C1CC=CC(=O)O1)OC(C)=O (configuration not stated) and give its measured TGI.
stdout: > 100 µM

stdin: Consider the molecule Cc1ccc(N=C2SC(c3ccc(C)cc3)(c3ccc(C)cc3)c3ccccc32)cc1 and give its measured TGI.
stdout: > 100 µM

stdin: Consider the molecule C=C1CC[C@@H]2[C@](C)(COC(C)=O)[C@H](OC(C)=O)CC[C@@]2(C)[C@@H]1CC(Nc1ccc(S(=O)(=O)Nc2nccs2)cc1)C1=CCOC1=O (some centres not stated) and give its measured TGI.
stdout: 13.6 µM

stdin: Consider the molecule N#CC12C(=O)N3C(=NC(c4ccccc4)NC3c3ccccc3)C1(C#N)C(c1ccccc1)NC1=C2CCCC1 (configuration not stated) and give its measured TGI.
stdout: > 100 µM
